Measured values drawn from patent US20120316071A1 for this set.

Molecular target: T1, Recombinant Human DLL4 (delta-like protein 4) (human, UniProt Q9NR61 27-524)
T1 construct: also called rHuman DLL4; Delta-like 4
Experiment: ECL (MSD) binding assay, DLL4 immobilised, Fab at 10 nM
EXPERIMENTAL ENDPOINT: Signal [10 nM Fab]
Write the value as a bare number.

**Q:** Identify measured Signal [10 nM Fab] corresponding to Fab VH1-46_IGHD6-6*01_IGHJ1*01 S102A/S103P/S104F/H111F & L6_IGKJ1*01 D50A (Fab, V domains shown, also called APFF & L6_IGKJ1*01 D50A) VH: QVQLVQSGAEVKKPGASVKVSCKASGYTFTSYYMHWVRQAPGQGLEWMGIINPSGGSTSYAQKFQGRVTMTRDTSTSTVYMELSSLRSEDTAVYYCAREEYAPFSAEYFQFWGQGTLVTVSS VL: EIVLTQSPATLSLSPGERATLSCRASQSVSSYLAWYQQKPGQAPRLLIYAASNRATGIPARFSGSGSGTDFTLTISSLEPEDFAVYYCQQRSNWPPWTFGQGTKVEIKR
**A:** 4230
